# System: HCC-2998 colon
# PROCEDURE SUMMARY: NCI-60 one-dose screen, 48 h
# STUDY CONDITIONS: 10 µM unless noted
The panel holds about 83,000 compounds, 20% with a hit somewhere; the sample as a whole holds those more often. Calls of active or inactive are those of the source. Rule for the calls: active = growth percent below 10; inactive = the rest.
The reply should be one of these categories: True (active), False (inactive)

Look up the recorded call for CS(=O)(=O)Nc1cccc(-c2ccc3ncnc(Nc4ccc(F)c(Cl)c4)c3c2)c1 in this test.
False

For this molecule, state the assay outcome: CC(C)(C)OC(=O)N1CCN(CCn2cc(C(F)(F)F)c3c(Cl)ncnc32)CC1
False

In this assay, the call recorded for Cc1cc(C)c(O)c(C(=O)CC(Br)C(=O)O)c1 (stereo unspecified) was what?
False

Lab log entry: Cn1c(I)c(C#C[Si](C)(C)C)c(=O)[nH]c1=O — outcome as called in the assay?
True

Called result for CCOc1ccccc1C(=O)N1CCN(c2cc(Cl)cc(Cl)c2)CC1
False

Lab log entry: O=C(Cn1c2ccccc2c2ccncc21)N/N=C\c1ccc2ccccc2c1 — outcome as called in the assay?
False

For CC1(C)CC(=O)C2=C(C1)OC1=C(C(=O)CC(C)(C)C1)C2c1ccc(OCc2cn(-c3ccc(F)cc3F)nn2)cc1 , what call appears in the results of this test?
False

// param item: O=c1c2ccccc2sc2c(NCCCNCCO)nc3ccccc3c12 ; yields the recorded call
True

Assay result, entry OCc1cnccc1NC12CC3CC(CC(C3)C1)C2 — outcome?
False

What outcome does the record of this test show for COc1ccc(-c2nn(-c3ccc(NC(=O)Nc4ccc(Cl)c(C(F)(F)F)c4)cc3)cc2-c2ccncc2)cc1Cl ?
False

Could you kindly confirm the outcome this assay logged for COc1cc(/C=C/C(=O)c2c(C)n([O-])c3cc(C)c(C)cc3[n+]2=O)cc(OC)c1OC ?
False

For Cc1cn(C2CC(F)C(CO)O2)c(=O)[nH]c1=O (stereo unspecified) , what call appears in the results of this test?
False

Assay outcome for Clc1ccc2c(c1)nnn1c3ncccc3c(Br)c21 : what was it?
False

What did the test return for Clc1ccc2c(NCCNc3nc(Cl)nc4ccccc34)ccnc2c1 ?
True

Give the logged outcome of this assay for the following molecule: O=S(=O)(O)c1ccc(F)cc1
False

For this molecule, state the assay outcome: COc1ccc2c(c1)nnc1c3cccnc3[nH]c21
False

Please indicate how the test categorized COC(=O)c1oc2c(C(C)=O)c(OCCCN(C)C)ccc2c1C .
False

Please let me know the test result on file for O=C(CSc1nnc(-c2ccc(Cl)cc2)o1)Nc1ccc(C(=O)/C=C/c2ccccc2)cc1 .
False

Please state the recorded outcome for this molecule: O=C(Nc1ccc(-n2ccc3c(NC(=O)c4ccccc4)nccc32)cc1)c1ccc(Cl)c(C(F)(F)F)c1
False

Recorded test call requested for CC(C)[C@@H]1NC(=O)[C@]2(C)CSC(=N2)c2ccnc(c2)CNC(=O)C[C@@H](/C=C/CCS)OC1=O
True

Hello, I am checking results. What call was entered for COc1ccc(C(=O)NC(=O)Nc2ccc3c(c2)NC(=O)/C3=C\c2[nH]c(C)c(CCC(=O)O)c2C)c(F)c1 ?
False

###

# Tested on: BT-549 breast
# PROCEDURE SUMMARY: NCI-60 one-dose screen, 48 h
# STUDY CONDITIONS: 10 µM unless noted
Compounds without any hit were thinned out: in the full panel of roughly 83,000, 20% have a hit. The source made the active and inactive calls. Rule for the calls: active = growth percent below 10; inactive = the rest.
Select the matching outcome among true (1) for active, false (0) for inactive

Given O=C(COc1ccc(Cl)cc1Cl)N1N=C(c2ccc(Cl)cc2Cl)CC1(O)c1cc(F)c(Cl)cc1Cl (centres undefined) , state the outcome it received in this test.
false (0)

Please indicate how the test categorized CCCCOc1c(N)cccc1C(=O)OCCN(CC)CC .
false (0)

Please share the test call associated with COc1ccc(-c2nn(-c3ccc(NC(=O)c4cc(C(F)(F)F)cc(C(F)(F)F)c4)cc3)cc2-c2ccncc2)cc1Cl .
false (0)

Hi, do you know how CC(Cl)(CCl)CS(=O)(=O)c1ccc(Cl)cc1 (centres undefined) came out in this test?
false (0)

# outcome recorded in this test, key = Nc1ncnc2c1c(C(F)(F)F)cn2[C@@H]1O[C@H](CO)[C@@H](O)[C@H]1O
true (1)

Lab log entry: Cc1nccc2c3ccc(OCc4cn(-c5ccc(Br)cc5)nn4)cc3n(CCCc3ccccc3)c12 — outcome as called in the assay?
false (0)

Hi team, can someone confirm the assay call for COc1ccc(C[C@H](N)C(=O)N[C@@H]2[C@@H](CO)OC(n3cnc4c(N(C)C)ncnc43)[C@@H]2O)cc1 (some centres undefined) ?
true (1)

Hi, do you know how COc1ccc(-c2ccc(NC(=O)Nc3ccc(Cl)c(C(F)(F)F)c3)c(C)n2)cc1 came out in this test?
false (0)

Tell me the recorded outcome of this test for CC(=O)N1N=C(CCC(=O)c2nc3ccc([N+](=O)[O-])cc3[nH]2)OC1c1ccc(O)cc1 (centres undefined) .
false (0)

Hi, do you know how C=CC(=O)NC(=O)Nc1ccccc1Cl came out in this test?
false (0)

Short answer needed: outcome of this test for Cc1c(C(C)(C)C)cc(C(C)(C)C)c2c1CN(C)CO2 ?
false (0)

How was CCCC(=O)Oc1ccc(/C(=C(\C)c2ccc(Cl)cc2)c2ccc(OCCN(CC)CC)cc2)cc1 classified in this test?
false (0)

For COc1ccc(C2=NN(C(=O)COc3ccc(Cl)cc3)C(O)(c3cc(F)c(Cl)cc3Cl)C2)cc1 (centres undefined) , what call appears in the results of this test?
false (0)

Returns: the outcome recorded for CCn1c(SCC(=O)c2ccc(Br)cc2)nnc1-c1cc2c([nH]c3ccccc32)c(-c2cccc(O)c2)n1 in this assay.
false (0)

Hey, what did the test say about C[C@H]1C=C(C[C@@H](O)CCCCCCCCCC[C@@H](O)[C@H]2CCC(=O)O2)C(=O)O1 ?
false (0)

# fetch the recorded call for COc1ccccc1S(=O)(=O)Nc1ccc2c3c(cc(-c4cnn(C5CC5)c4)nc13)C(=O)N2C here
false (0)

Each molecule tested received a call. Report the one for CCCCCCCCN(CCCCCCCC)CC(O)c1cc(-c2ccccc2)nc2ccc(OC)cc12 (centres undefined) .
false (0)

Hi team, can someone confirm the assay call for Cc1ccc(-c2nc3c(N=Nc4ccc(S(N)(=O)=O)cc4)c(N)nn3c(N)c2C#N)cc1 ?
false (0)

Give the logged outcome of this assay for the following molecule: c1ccc(OCC[P+](c2ccccc2)(c2ccccc2)c2ccccc2)cc1
false (0)

The origin of these recorded values is PubChem BioAssay (NCI).
